# System: Hepatitis C virus
# methodSummary: Antiviral activity against Hepatitis C virus genotype 1b infected in human HuH7 cells assessed as inhibition of viral replication by replicon assay
# Type: functional, organism-based, Hepacivirus hominis
# measurementConditions: Huh-7
endpointLabel: EC50
# include the unit after the value

Returns the measured EC50 for the input molecule. Input: CS(=O)(=O)Nc1ccc2c(c1)S(=O)(=O)N=C(C1=C(O)[C@@H]3[C@H]4CC[C@H](C4)[C@@H]3N(Cc3ccc(F)cc3)C1=O)N2
3 nM

###

# methodSummary: Cytotoxicity against human HuH7 cells
# Format: cell-based, Huh-7
endpointLabel: CC50 (µM)
Just the number in µM, nothing appended.

Which measured CC50 value corresponds to CS(=O)(=O)Nc1ccc2c(c1)S(=O)(=O)N=C(C1=C(O)[C@@H]3[C@H]4CC[C@H](C4)[C@@H]3N(Cc3ccc(F)cc3)C1=O)N2 ?
100

###

# System: Hepatitis C virus
# methodSummary: Antiviral activity against Hepatitis C virus genotype 1a infected in human HuH7 cells assessed as inhibition of viral replication by replicon assay
# Format: functional, organism-based, Hepacivirus hominis
# measurementConditions: subtype 1a, Huh-7
endpointLabel: EC50 (nM)
Give your result in nM as a bare value.

Provide value of EC50 for this record tested with Hepatitis C virus: CS(=O)(=O)Nc1ccc2c(c1)S(=O)(=O)N=C(C1=C(O)[C@@H]3[C@H]4CC[C@H](C4)[C@@H]3N(Cc3ccc(F)cc3)C1=O)N2 [SETROBUVIR]
52

###

# methodSummary: Half life in monkey liver microsomes
# measurementConditions: rhesus monkey
endpointLabel: half-life

What measured half-life goes with CS(=O)(=O)Nc1ccc2c(c1)S(=O)(=O)N=C(C1=C(O)[C@@H]3[C@H]4CC[C@H](C4)[C@@H]3N(Cc3ccc(F)cc3)C1=O)N2 ?
> 60 min

###

# methodSummary: Inhibition of Hepatitis C virus NS5B RNA-dependent RNA polymerase
# Design: species or system Hepacivirus hominis
Below is a list of entries, each paired with its recorded pIC50 value.
# pIC50 is unitless: minus log10 of the molar concentration; print number only

>>> print(df.to_string())
                                  cpdsmiles  valuereported
0  Nc1nc2c(ncn2[C@@H]2O[C@H](CO)C[C@H]2O)c(=O)[nH]1           7.10

Any idea what its pIC50 is? The compound is Nc1nc(O)c2ccn([C@@H]3O[C@H](CO)C[C@H]3O)c2n1
7.10

Another: Nc1ncnc2c1ccn2[C@@H]1O[C@H](CO)C[C@H]1O
7.10

Then O=C(O)/C=C/c1ccc(NC(=O)CNC(=O)c2ccc3c(c2)nc(-c2ccoc2)n3C2CCCCC2)cc1 ?
6.55

###

# methodSummary: Inhibition of Hepatitis C virus NS5B RNA-dependent RNA polymerase
# Parameters: species or system Hepacivirus hominis
Collected log10 IC50 values appear next to each entry.
Recall that a logarithmic scale is used here: each number is log10 of IC50 in µM.

                                  cpdsmiles  valuereported
0  Nc1ccn([C@@H]2O[C@H](CO)C[C@H]2O)c(=O)n1          -1.10
1  O=C(O)/C=C/c1ccc(NC(=O)C2(NC(=O)c3ccc4c(c3)nc(-c3ccoc3)n4C3CCCCC3)CCCC2)cc1          -1.02
2  CO[C@@H]1[C@H](O)[C@@H](CO)O[C@H]1n1ccc2c(O)nc(N)nc21          -0.46
3  CO[C@@H]1[C@H](O)[C@@H](CO)O[C@H]1n1cnc2c(O)nc(N)nc21           0.58

Now, please, on to the next compound.
Form field: reported log10 IC50 of CO[C@@H]1[C@H](O)[C@@H](CO)O[C@H]1n1ccc(N)nc1=O
0.08
